- Target desc: T1, muCD98hc ECD Avi-His (mouse, UniProt P10852 100-526)
- T1 construct: biotinylated on the Avi tag where captured on streptavidin; also called Mouse CD98-AVI-His; Mouse CD98hc-AVI-His
- T1 sequence: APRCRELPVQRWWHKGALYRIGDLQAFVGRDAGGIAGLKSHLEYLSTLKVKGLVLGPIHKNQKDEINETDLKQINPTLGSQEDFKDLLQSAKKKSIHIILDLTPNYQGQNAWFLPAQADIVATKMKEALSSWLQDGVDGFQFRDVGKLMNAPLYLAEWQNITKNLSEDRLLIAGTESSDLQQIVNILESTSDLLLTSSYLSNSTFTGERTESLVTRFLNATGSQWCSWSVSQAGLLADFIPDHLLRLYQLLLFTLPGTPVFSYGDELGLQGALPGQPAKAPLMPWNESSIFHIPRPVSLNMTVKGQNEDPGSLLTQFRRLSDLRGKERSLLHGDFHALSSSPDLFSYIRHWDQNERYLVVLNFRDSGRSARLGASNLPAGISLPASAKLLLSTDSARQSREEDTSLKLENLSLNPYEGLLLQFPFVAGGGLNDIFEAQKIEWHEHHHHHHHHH
- Assay method text: ELISA, hybridoma supernatant
Quantity name: OD450

Binder	Quantity name	Readout number
CD98HC.04.063 (antibody, V domains shown, hybridoma IgG) VH: EVKLEESGGGLVQPGGSMILSCVASGFTFSNSWMNWVRQSPEKGLEWVAEIRLRSNNYATHYAESVKGRFTISRDDSKSTVYLQMNNLRAEDTGIYYCSRGDPGAYWGQGTLVTVSA VL: DIQMTQSSSYLSVSLGNRVTITCKASDHIKNWLAWFQQKPGNAPRLLISGATILETGVPSRFSGSGSGKDYTLSITSLQTEDVATYYCQQYWSTPYTFGGGTKLEIK	OD450	0.0738
CD98HC.04.058 (antibody, V domains shown, hybridoma IgG) VH: QVQLQQSGAELVRPGVSVKISCKASGYTFTDHTMHWVKQSHARSLEWIGVISTYFGDASYNPKFKGKATMTVDKSSNTAYMELARLTSEDSAIYYCARVGGRLRLGYYFDYWGQGTTLTVSS VL: NIMMTQSPSSLAVSAGEKVTMNCKSSQTVLYSSNQKNYLAWYQQKPGQSPKLLIYWASTRESGVPDRFTGSGSGTDFTLTISSVQVEDLAVYYCHQYLSSYTFGGGTKLEIK	OD450	0.121
CD98HC.04.013 (antibody, V domains shown, hybridoma IgG) VH: EVQLVESGGDLGMPGGSLKLSCAASGFALSGYDMSWVRQTPDKRLEWVAYLSSGGGSTYYPYTVKGRFTISRDNAQNTLYLQMSSLKSEDTAIYYCARHSEVRPWFGYWGQGTLVTVSA VL: DIVMSQSPSSLAVSVGEKVTLTCKSSQSLLYSGNQKNYLAWYQQNPGQSPKLLIYWASTRESGVPDRFTGSGSGTDFTLTISSVKAEDLAVYYCQQYYTYPPTFGAGTKLGLK	OD450	0.0717
